tested.system: T1, murine RSPO3 (R&D Systems Cat. No. 4120-RS/CF) (murine, UniProt Q2TJ95 22-277, limits assumed)
T1 construct: also called mouse RSPO3
T1 sequence (looked up): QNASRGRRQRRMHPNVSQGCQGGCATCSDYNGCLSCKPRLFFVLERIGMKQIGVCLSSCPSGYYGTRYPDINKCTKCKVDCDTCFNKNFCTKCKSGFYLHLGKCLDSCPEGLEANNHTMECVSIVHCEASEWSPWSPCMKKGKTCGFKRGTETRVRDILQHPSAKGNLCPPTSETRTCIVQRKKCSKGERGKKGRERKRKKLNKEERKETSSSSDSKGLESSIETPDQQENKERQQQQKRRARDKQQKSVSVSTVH
procedure.summary: SPR (BIAcore T200), RSPO3 immobilized, antibody injected, 25 C, 1:1 Langmuir
observable: koff (s⁻¹)
Numbers only, in s⁻¹.

Go through the list and state koff for each entry.
1. hu4A6.L4H2 (antibody, V domains shown, CDR graft only (L4, H2); also called humanized 4A6) VH: EVQLVESGGGVVQPGRSLRLSCAASGFTFSDYDMAWVRQAPGKGLEWVATIIYDGSRTYYRDSVKGRFTISRDNSKNTLYLQMNSLRAEDTAVYYCAAHDRSFDYWGQGTMVTVSS VL: DIQMTQSPSSLSASVGDRVTITCLASEDISNDLVWYQQKPGKAPKLLIYAASRLQDGVPSRFSGSGFGTDFTLTISSLQPEDFATYYCQQSYKYLPTFGQGTKLEIK
2. chimeric 4A6 (antibody, V domains shown, Chimeric counterpart of hu4A6 with the rat 4A6 variable domains) VH: EVQLVESGGGSVQPGRSLKVSCAASGFTFSDYDMAWVRQAPKKGLEWVATIIYDGSRTYYRDSVKGRFTLSRDNTKSTLCLQMDSLRSEDTATYYCAAHDRSFDYWGQGIMVTVSS VL: DIQMTQSPASLSASLGETVSIECLASEDISNDLVWYQQKSGKSPQLLIYAASRLQDGVPSRFSGSGFGTRFSLKISGMQPEDEADYFCQQSYKYLPTFGAGTKLGLK
3. chimeric 15F3 (antibody, V domains shown, Chimeric counterpart with the rat 15F3 variable domains) VH: EVQLVESGGGLVQPGRSLKLSCAASGFTFSDYDMAWVRQAPKKGLEWVATIIYDGSRAYFGDSVRGRFTVSRDNTKSTLYLQMDSLRSEDTATYYCTAHDRSFDYWGQGVMVTVSS VL: DIQMTQSPASLSASLGETVSIECLVSEDISNDFVWYQQKSGKSPQLLIYAASRLQDGVPSRFSGSGSGTRFSLRISGMQPEDEAEYFCQQSYKYPPTFGAGTKLELK

["8.08e-05", "5.22e-05", 0.000156]

Recorded koff of hu15F3.L4H2 (antibody, V domains shown, CDR graft only (L4, H2); also called humanized 15F3) VH: EVQLVESGGGVVQPGRSLRLSCAASGFTFSDYDMAWVRQAPGKGLEWVATIIYDGSRAYFGDSVRGRFTISRDNSKNTLYLQMNSLRAEDTAVYYCTAHDRSFDYWGQGTMVTVSS VL: DIQMTQSPSSLSASVGDRVTITCLVSEDISNDFVWYQQKPGKAPKLLIYAASRLQDGVPSRFSGSGSGTDFTLTISSLQPEDFATYYCQQSYKYPPTFGQGTKLEIK , please.
0.000147
